The following compounds are shown together with reported Activity values.
Target of assay: Sodium-dependent noradrenaline transporter (Homo sapiens) (UniProt P23975)
Sequence (P23975 whole entry): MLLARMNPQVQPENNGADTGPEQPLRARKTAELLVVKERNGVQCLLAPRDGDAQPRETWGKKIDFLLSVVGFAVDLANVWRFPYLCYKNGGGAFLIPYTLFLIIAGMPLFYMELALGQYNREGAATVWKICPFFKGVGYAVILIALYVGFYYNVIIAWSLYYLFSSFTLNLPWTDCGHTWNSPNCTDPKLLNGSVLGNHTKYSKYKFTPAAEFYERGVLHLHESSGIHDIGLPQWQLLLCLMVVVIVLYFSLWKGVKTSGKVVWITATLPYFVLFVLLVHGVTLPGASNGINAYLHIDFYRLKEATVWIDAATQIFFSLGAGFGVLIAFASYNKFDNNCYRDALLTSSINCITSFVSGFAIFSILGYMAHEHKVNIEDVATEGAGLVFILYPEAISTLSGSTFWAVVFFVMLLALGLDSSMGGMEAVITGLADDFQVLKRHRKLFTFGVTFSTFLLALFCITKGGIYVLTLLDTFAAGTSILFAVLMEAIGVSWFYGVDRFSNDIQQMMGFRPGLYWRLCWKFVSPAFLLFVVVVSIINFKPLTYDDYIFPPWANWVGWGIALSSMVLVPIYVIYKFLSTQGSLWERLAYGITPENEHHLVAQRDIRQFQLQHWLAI
Assay protocol: Binding affinity at NET
Quantity measured: Activity (nM)

[
  {
    "Compound": "Brc1ccccc1O[C@@H](c1ccccc1)[C@@H]1CNCCO1",
    "Quantity measured": "Activity",
    "Unit text": "nM",
    "Assay value": 3
  },
  {
    "Compound": "Fc1cccc(F)c1O[C@@H](C1=CCCC1)[C@@H]1CNCCO1",
    "Quantity measured": "Activity",
    "Unit text": "nM",
    "Assay value": 20
  },
  {
    "Compound": "CCOc1ccccc1O[C@@H](c1cccc(OC)n1)[C@@H]1CNCCO1",
    "Quantity measured": "Activity",
    "Unit text": "nM",
    "Assay value": 28
  },
  {
    "Compound": "CS(=O)(=O)c1ccccc1O[C@@H](c1ccccc1)[C@@H]1CNCCO1",
    "Quantity measured": "Activity",
    "Unit text": "nM",
    "Assay value": 1360
  },
  {
    "Compound": "Fc1cccc(F)c1O[C@@H](Cc1ccccc1)[C@@H]1CNCCO1",
    "Quantity measured": "Activity",
    "Unit text": "nM",
    "Assay value": 66
  },
  {
    "Compound": "c1ccc([C@H](Oc2ccccc2C2CC2)[C@@H]2CNCCO2)cc1",
    "Quantity measured": "Activity",
    "Unit text": "nM",
    "Assay value": 2
  },
  {
    "Compound": "Fc1ccccc1O[C@@H](c1ccccc1)[C@@H]1CNCCO1",
    "Quantity measured": "Activity",
    "Unit text": "nM",
    "Assay value": 7
  },
  {
    "Compound": "c1ccc([C@H](Oc2ccccc2C2CC2)[C@H]2CNCCO2)cc1",
    "Quantity measured": "Activity",
    "Unit text": "nM",
    "Assay value": 35
  },
  {
    "Compound": "CCOc1ccccc1O[C@@H](c1ccc(CC)cn1)[C@@H]1CNCCO1",
    "Quantity measured": "Activity",
    "Unit text": "nM",
    "Assay value": 49
  },
  {
    "Compound": "Cc1coc([C@@H](Oc2c(F)cccc2F)[C@@H]2CNCCO2)n1",
    "Quantity measured": "Activity",
    "Unit text": "nM",
    "Assay value": 6940
  },
  {
    "Compound": "Cc1coc([C@H](Oc2c(F)cccc2F)[C@@H]2CNCCO2)n1 (stereo in doubt; form 1)",
    "Quantity measured": "Activity",
    "Unit text": "nM",
    "Assay value": 18
  },
  {
    "Compound": "Fc1ccc(O[C@@H](c2ccccc2)[C@@H]2CNCCO2)c(F)c1",
    "Quantity measured": "Activity",
    "Unit text": "nM",
    "Assay value": 16
  },
  {
    "Compound": "Fc1cccc(F)c1O[C@H](C1=CCCC1)[C@@H]1CNCCO1",
    "Quantity measured": "Activity",
    "Unit text": "nM",
    "Assay value": 2570
  },
  {
    "Compound": "Fc1ccc(O[C@@H](c2ccccc2)[C@@H]2CNCCO2)cc1",
    "Quantity measured": "Activity",
    "Unit text": "nM",
    "Assay value": 21
  },
  {
    "Compound": "Fc1cccc(F)c1O[C@@H](c1ncco1)[C@@H]1CNCCO1",
    "Quantity measured": "Activity",
    "Unit text": "nM",
    "Assay value": 9
  },
  {
    "Compound": "Fc1cccc(F)c1O[C@@H](c1ccccn1)[C@@H]1CNCCO1",
    "Quantity measured": "Activity",
    "Unit text": "nM",
    "Assay value": 6
  },
  {
    "Compound": "Fc1cccc(F)c1O[C@@H](c1nccs1)[C@@H]1CNCCO1",
    "Quantity measured": "Activity",
    "Unit text": "nM",
    "Assay value": 19
  },
  {
    "Compound": "CCOc1cccc(F)c1O[C@@H](c1ccccc1)[C@@H]1CNCCO1",
    "Quantity measured": "Activity",
    "Unit text": "nM",
    "Assay value": 4
  },
  {
    "Compound": "N#Cc1ccccc1O[C@@H](c1ccccc1)[C@@H]1CNCCO1",
    "Quantity measured": "Activity",
    "Unit text": "nM",
    "Assay value": 18
  },
  {
    "Compound": "Fc1cccc(F)c1O[C@@H](c1cccc2c1OCC2)[C@@H]1CNCCO1",
    "Quantity measured": "Activity",
    "Unit text": "nM",
    "Assay value": 13
  },
  {
    "Compound": "Cc1coc([C@H](Oc2c(F)cccc2F)[C@@H]2CNCCO2)n1 (stereo in doubt; form 2)",
    "Quantity measured": "Activity",
    "Unit text": "nM",
    "Assay value": 19
  },
  {
    "Compound": "Fc1cccc(OC(c2ccccc2)C2CNCCO2)c1 (stereo not drawn)",
    "Quantity measured": "Activity",
    "Unit text": "nM",
    "Assay value": 11
  },
  {
    "Compound": "CCOc1ccccc1O[C@@H](c1ncccc1C)[C@@H]1CNCCO1",
    "Quantity measured": "Activity",
    "Unit text": "nM",
    "Assay value": 27
  }
]

Sourced from ChEMBL document CHEMBL1142443
